experimentSummary: qHTS assay to identify small molecule agonists of the sonic hedgehog signaling (Shh) pathway (AID 1259368);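 also: NIH/3T3-derived 3T3Gli1-Luc cells carrying a stable Gli1-driven firefly luciferase reporter; % is scaled to controls: 0 for no effect and ±100 for the full control effect; nearly all actives have a fitted effect of over 15% in size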
recordedConditions: NIH/3T3 Gli1-Luc reporter, luciferase, 24 h, stronger effect = higher value; series mostly up to 92.4 µM
The source made the active and inactive calls. Calls follow the shape of the full dose curve.

compound: O=C(NCCO[N+](=O)[O-])c1cccnc1
activity change: inactive
--
compound: CCCCc1ncc(/C=C(\Cc2cccs2)C(=O)O)n1Cc1ccc(C(=O)O)cc1
activity change: inactive
--
compound: NC(N)=NCCC[C@H](N)C(=O)O
activity change: -0.124% [at 8.39 µM] (inactive)
--
compound: COc1cccc(N(C)C(=S)Oc2ccc3c(c2)CCCC3)n1
activity change: inactive
--
compound: COc1cc2nc(N(C)CCCNC(=O)C3CCCO3)nc(N)c2cc1OC (stereo not drawn)
activity change: inactive
--
compound: COC(=O)C1=C(C)NC(COC(N)=O)=C(C(=O)OC(C)C)C1c1cccc(Cl)c1Cl (stereo not drawn)
activity change: inactive
--
compound: C/C=C/C=C/CO
activity change: inactive
--
compound: NCC(=O)O
activity change: -0.0794% [at 18.9 µM] (inactive)
--
compound: O=C(O)C1(C(=O)Nc2ccc(Cl)cc2Cl)CC1
activity change: inactive
--
compound: Cc1cc(N)c2cc(NC(=O)Nc3ccc4nc(C)cc(N)c4c3)ccc2n1
activity change: inactive
--
compound: Cc1oc(-c2ccccc2)nc1CCOc1cccc2c1ccn2CCC(=O)O
activity change: inactive
--
compound: C=CCOc1ccccc1OCC(O)CNC(C)C (stereo not drawn)
activity change: inactive
--
compound: C=CC(=O)OCCOCCOCCOCCOC(=O)C=C
activity change: inactive
